Origin of the recorded values: paper PMC9138545

# pKd values compiled below
- MEASURED_ON: N-terminal SH2 domain of PI3K regulatory subunit 1 (UniProt P27986 321-433)
- Sequence (P27986 321-433): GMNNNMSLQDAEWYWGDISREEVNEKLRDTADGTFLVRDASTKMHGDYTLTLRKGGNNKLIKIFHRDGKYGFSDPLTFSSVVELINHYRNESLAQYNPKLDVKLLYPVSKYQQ
- ASSAY_METHOD_TEXT: FP
pKd: −log10 of the molar value. Square brackets hold non-standard residues; d marks the D form. Ends that are not written are not given here. pY = N[C@@H](Cc1ccc(OP(=O)(O)O)cc1)C(=O)O
READOUT_TYPE: pKd

GRKGSGD[pY]MPMSPKV-NH2 [phospho-para-Tyr IRS-1 peptide GRKGSGD(pY)MPMSPKV]: 6.86
GRKGSGDYMPMSPKSK (not fully specified; phosphotyrosine at position 8 of the peptide (tyrosine residue 632 of human IRS1); lys-carboxyfluorescein (K-FITC) at the C-terminal end) [fluorescently labelled phospho-para-tyrosine IRS-1 peptide GRKGSGD(pY)MPMSPKS(K-FITC)]: 6.39
